- experiment_notes: Blood and brain concentrations (LC-MS) in mice treated intraperitoneally for a week with graduated doses
- Format: in vivo, CD1 mice
- conditions_used: female, CD1, mouse, whole blood, ip; females, 1.25 mg/kg intraperitoneally for a week, n = 2; read-out: Blood concentration
recorded_endpoint: concentration at 1 week (ng/mL)

| item_smiles | recorded_endpoint | numeric_readout |
| --- | --- | --- |
| CO[C@H]1C[C@@H]2CC[C@@H](C)[C@@](O)(O2)C(=O)C(=O)N2CCCC[C@H]2C(=O)O[C@H]([C@H](C)C[C@@H]2CC[C@@H](OCCO)[C@H](OC)C2)CC(=O)[C@H](C)/C=C(\C)[C@@H](O)[C@@H](OC)C(=O)[C@H](C)C[C@H](C)/C=C/C=C/C=C/1C | concentration at 1 week | 25 |
